# credit: paper PMC6019134

Measured ΔTm at 10 µM, listed per entry.
system name: TTKA (Homo sapiens)
Construct: TEV-cleavable (cleaved yes); made in house; host or cells: E. coli
Sequence (P33981 whole entry): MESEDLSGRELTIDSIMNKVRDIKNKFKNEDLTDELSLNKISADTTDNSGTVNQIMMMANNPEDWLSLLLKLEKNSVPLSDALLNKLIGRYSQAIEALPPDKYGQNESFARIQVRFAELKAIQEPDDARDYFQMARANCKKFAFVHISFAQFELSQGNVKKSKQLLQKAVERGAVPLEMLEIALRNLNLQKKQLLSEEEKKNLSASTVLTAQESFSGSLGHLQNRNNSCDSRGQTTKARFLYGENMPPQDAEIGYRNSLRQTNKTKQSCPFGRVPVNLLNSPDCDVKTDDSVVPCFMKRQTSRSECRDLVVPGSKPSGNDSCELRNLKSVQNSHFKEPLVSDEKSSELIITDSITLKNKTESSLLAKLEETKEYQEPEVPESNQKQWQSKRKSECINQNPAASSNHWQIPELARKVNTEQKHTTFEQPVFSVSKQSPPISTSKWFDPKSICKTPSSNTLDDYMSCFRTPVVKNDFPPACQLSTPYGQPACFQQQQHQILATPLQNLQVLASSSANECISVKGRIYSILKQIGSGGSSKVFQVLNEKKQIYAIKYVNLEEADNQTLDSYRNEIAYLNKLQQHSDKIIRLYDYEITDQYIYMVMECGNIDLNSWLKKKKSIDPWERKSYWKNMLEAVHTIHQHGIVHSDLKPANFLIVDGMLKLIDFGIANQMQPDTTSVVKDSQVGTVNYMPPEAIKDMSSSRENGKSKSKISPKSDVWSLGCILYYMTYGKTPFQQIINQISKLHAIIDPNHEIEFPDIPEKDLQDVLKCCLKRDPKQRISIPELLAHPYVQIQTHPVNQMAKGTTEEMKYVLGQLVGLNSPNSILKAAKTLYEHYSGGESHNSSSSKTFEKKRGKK
assay protocol: DSF thermal shift, kinase panel
Assay type: binding
experimental setup: 10 μM compound
The response must be a number in °C with no trailing unit.

stdin: Query ΔTm at 10 µM for Cc1ccc(Nc2nsnc(Nc3cccc(C(N)=O)c3)c2=O)cc1O [Compound 1]
stdout: 0.8

stdin: Query ΔTm at 10 µM for Cc1ccc(Nc2nsnc(Nc3ccc4c(c3)CS(=O)(=O)C4)c2=O)cc1O [Compound 3]
stdout: 2.1

stdin: Query ΔTm at 10 µM for CNC(=O)c1ccccc1Nc1nsnc(Nc2ccc(N3CCOCC3)cc2)c1=O [Compound 5]
stdout: 0.1

stdin: Query ΔTm at 10 µM for CNC(=O)c1ccccc1Nc1nsnc(Nc2cccc(CS(C)(=O)=O)c2)c1=O [Compound 4]
stdout: 0.3

stdin: Query ΔTm at 10 µM for Cc1ccc(Nc2nsnc(Nc3ccc(C(N)=O)cc3)c2=O)cc1O [Compound 2]
stdout: 2.6

====

Measured ΔTm at 10 µM, listed per entry.
system name: CSNK1G3 (Homo sapiens)
Construct: purchased in-house (home-made panel, SGC-style construct names)
Sequence (Q9Y6M4 whole entry): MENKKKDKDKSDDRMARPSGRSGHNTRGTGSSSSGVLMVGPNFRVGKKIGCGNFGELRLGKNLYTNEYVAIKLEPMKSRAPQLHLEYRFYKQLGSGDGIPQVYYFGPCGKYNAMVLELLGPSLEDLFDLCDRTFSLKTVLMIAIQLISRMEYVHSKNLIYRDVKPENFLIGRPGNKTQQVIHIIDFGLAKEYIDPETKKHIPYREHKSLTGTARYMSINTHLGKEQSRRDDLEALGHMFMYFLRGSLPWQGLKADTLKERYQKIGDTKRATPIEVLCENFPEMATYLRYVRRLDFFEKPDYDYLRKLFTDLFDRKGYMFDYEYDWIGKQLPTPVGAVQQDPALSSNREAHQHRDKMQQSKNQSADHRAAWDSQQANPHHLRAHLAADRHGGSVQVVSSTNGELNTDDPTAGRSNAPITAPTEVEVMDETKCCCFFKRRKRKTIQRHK
assay protocol: DSF thermal shift, kinase panel
Format: binding
experimental setup: 10 μM compound
The response must be a number in °C with no trailing unit.

{"columns": ["smiles input", "ΔTm at 10 µM, °C"],
 "data": [
  ["Cc1ccc(Nc2nsnc(Nc3ccc4c(c3)CS(=O)(=O)C4)c2=O)cc1O", -0.2],
  ["CNC(=O)c1ccccc1Nc1nsnc(Nc2ccc(N3CCOCC3)cc2)c1=O", 0],
  ["Cc1ccc(Nc2nsnc(Nc3ccc(C(N)=O)cc3)c2=O)cc1O", 0.1],
  ["Cc1ccc(Nc2nsnc(Nc3cccc(C(N)=O)c3)c2=O)cc1O", 0]
]}

# evaluate next
stdin: Query ΔTm at 10 µM for "CNC(=O)c1ccccc1Nc1nsnc(Nc2cccc(CS(C)(=O)=O)c2)c1=O"
stdout: -0.1

====

Measured ΔTm at 10 µM, listed per entry.
system name: PKMYT1A (Homo sapiens)
Construct: purchased in-house (home-made panel, SGC-style construct names)
Sequence (Q99640 1-499): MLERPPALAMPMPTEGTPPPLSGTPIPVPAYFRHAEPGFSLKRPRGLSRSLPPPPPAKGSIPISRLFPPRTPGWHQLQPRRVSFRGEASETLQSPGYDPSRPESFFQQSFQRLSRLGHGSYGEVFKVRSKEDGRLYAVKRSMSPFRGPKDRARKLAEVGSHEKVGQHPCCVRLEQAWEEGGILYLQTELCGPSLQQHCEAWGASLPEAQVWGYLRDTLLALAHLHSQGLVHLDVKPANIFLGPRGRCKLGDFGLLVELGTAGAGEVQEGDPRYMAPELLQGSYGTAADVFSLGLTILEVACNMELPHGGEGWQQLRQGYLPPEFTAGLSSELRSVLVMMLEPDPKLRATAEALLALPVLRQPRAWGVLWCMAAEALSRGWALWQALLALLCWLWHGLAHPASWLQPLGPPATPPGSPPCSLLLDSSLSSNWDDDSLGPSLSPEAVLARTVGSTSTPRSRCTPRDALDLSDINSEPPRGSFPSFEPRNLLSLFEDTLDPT
assay protocol: DSF thermal shift, kinase panel
Format: binding
experimental setup: 10 μM compound
The response must be a number in °C with no trailing unit.

Worked set:
{"columns": ["smiles input", "system name", "ΔTm at 10 µM [°C]"],
 "data": [
  ["Cc1ccc(Nc2nsnc(Nc3cccc(C(N)=O)c3)c2=O)cc1O", "PKMYT1A (Homo sapiens)", 0],
  ["Cc1ccc(Nc2nsnc(Nc3ccc(C(N)=O)cc3)c2=O)cc1O", "PKMYT1A (Homo sapiens)", 3],
  ["CNC(=O)c1ccccc1Nc1nsnc(Nc2cccc(CS(C)(=O)=O)c2)c1=O", "PKMYT1A (Homo sapiens)", -0.3],
  ["CNC(=O)c1ccccc1Nc1nsnc(Nc2ccc(N3CCOCC3)cc2)c1=O", "PKMYT1A (Homo sapiens)", -0.8]
]}

# evaluate next
stdin: Query ΔTm at 10 µM for "Cc1ccc(Nc2nsnc(Nc3ccc4c(c3)CS(=O)(=O)C4)c2=O)cc1O"
stdout: 1.2

====

system name: VRK1 (Homo sapiens, UniProt Q99986)
Construct: TEV-cleavable (cleaved yes); made in house; host or cells: E. coli
Sequence (Q99986 whole entry): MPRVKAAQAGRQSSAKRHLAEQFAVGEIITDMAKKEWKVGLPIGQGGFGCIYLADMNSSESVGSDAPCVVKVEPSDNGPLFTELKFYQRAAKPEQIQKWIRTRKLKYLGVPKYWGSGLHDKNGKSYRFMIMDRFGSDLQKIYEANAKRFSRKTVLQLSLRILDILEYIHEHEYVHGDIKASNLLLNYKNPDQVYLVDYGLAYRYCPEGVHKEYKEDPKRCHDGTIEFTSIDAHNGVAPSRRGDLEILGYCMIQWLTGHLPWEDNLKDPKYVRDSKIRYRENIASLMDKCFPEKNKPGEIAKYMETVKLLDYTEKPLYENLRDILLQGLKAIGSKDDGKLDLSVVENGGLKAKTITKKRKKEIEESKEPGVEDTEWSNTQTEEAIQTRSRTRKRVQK
assay protocol: DSF thermal shift, kinase panel
Format: binding
experimental setup: 10 μM compound
Measured ΔTm at 10 µM, listed per entry.
The response must be a number in °C with no trailing unit.

Worked set:
{"columns": ["smiles input", "ΔTm at 10 µM (°C)"],
 "data": [
  ["Cc1ccc(Nc2nsnc(Nc3ccc4c(c3)CS(=O)(=O)C4)c2=O)cc1O", -0.2],
  ["CNC(=O)c1ccccc1Nc1nsnc(Nc2cccc(CS(C)(=O)=O)c2)c1=O", -0.3],
  ["CNC(=O)c1ccccc1Nc1nsnc(Nc2ccc(N3CCOCC3)cc2)c1=O", -0.3],
  ["Cc1ccc(Nc2nsnc(Nc3cccc(C(N)=O)c3)c2=O)cc1O", -0.4]
]}

stdin: Please report ΔTm at 10 µM with VRK1 (Homo sapiens, UniProt Q99986) for item "Cc1ccc(Nc2nsnc(Nc3ccc(C(N)=O)cc3)c2=O)cc1O" .
stdout: -0.7

====

system name: human CaMKK2 (residues 50–588) (Homo sapiens, UniProt Q96RR4)
Construct: recombinant bacterial expressed human CaMKK2 (residues 50–588); made in house
assay protocol: CaMKK2 enzyme assay ([γ-32P]-ATP, CaMKKtide peptide);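 also: radiometric kinase assay: phosphate transfer from [γ-32P]-ATP to synthetic peptide substrate, 10 min reaction at 30 °C, peptide-bound radioactivity captured on P81 paper and measured by scintillation counting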
Type: biochemical
experimental setup: [drug] 0.001 μM
Measured Enzyme assay raw data (0 μM drug = 100.00), listed per entry.
The answer should be a number; do not append a unit.

Worked set:
{"columns": ["compound", "system name", "assay value"],
 "data": [
  ["O=C(O)c1ccc2c3c1cccc3c(=O)n1c3ccccc3nc21 [STO-609, reference compound]", "human CaMKK2 (residues 50–588) (Homo sapiens, UniProt Q96RR4)", 88.33],
  ["Cc1ccc(Nc2nsnc(Nc3ccc(-c4ncc[nH]4)cc3)c2=O)cc1O", "human CaMKK2 (residues 50–588) (Homo sapiens, UniProt Q96RR4)", 98.56],
  ["Cc1ccc(Nc2nsnc(Nc3ccccc3C(N)=O)c2=O)cc1O", "human CaMKK2 (residues 50–588) (Homo sapiens, UniProt Q96RR4)", 102.30]
]}

# evaluate next
stdin: Query Enzyme assay raw data (0 μM drug = 100.00) for "Cc1ccc(Nc2nsnc(Nc3ccc(C(=O)O)cc3)c2=O)cc1O"
stdout: 102.38

====

system name: PHKG2A (Homo sapiens, UniProt P15735)
Construct: purchased in-house (home-made panel, SGC-style construct names)
Sequence (P15735 whole entry): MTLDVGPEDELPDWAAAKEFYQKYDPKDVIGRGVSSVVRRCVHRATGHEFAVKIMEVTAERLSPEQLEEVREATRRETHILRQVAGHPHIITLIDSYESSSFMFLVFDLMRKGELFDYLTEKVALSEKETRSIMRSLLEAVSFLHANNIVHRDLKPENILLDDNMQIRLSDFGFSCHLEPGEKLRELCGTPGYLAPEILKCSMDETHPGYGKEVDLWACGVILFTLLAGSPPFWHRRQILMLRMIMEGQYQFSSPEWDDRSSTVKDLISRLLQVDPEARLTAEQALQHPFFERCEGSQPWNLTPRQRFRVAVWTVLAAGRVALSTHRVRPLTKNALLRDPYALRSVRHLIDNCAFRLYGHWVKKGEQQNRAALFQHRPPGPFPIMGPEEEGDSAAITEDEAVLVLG
assay protocol: DSF thermal shift, kinase panel
Type: binding
experimental setup: 10 μM compound
quantity kind: ΔTm at 10 µM (°C)
The response must be a number in °C with no trailing unit.

Worked set:
{"columns": ["smiles input", "reading unit", "ΔTm at 10 µM"],
 "data": [
  ["Cc1ccc(Nc2nsnc(Nc3cccc(C(N)=O)c3)c2=O)cc1O", "°C", 0.7],
  ["Cc1ccc(Nc2nsnc(Nc3ccc(C(N)=O)cc3)c2=O)cc1O", "°C", 2.4]
]}

stdin: Query ΔTm at 10 µM for "Cc1ccc(Nc2nsnc(Nc3ccc4c(c3)CS(=O)(=O)C4)c2=O)cc1O"
stdout: 1.6

stdin: Query ΔTm at 10 µM for "CNC(=O)c1ccccc1Nc1nsnc(Nc2cccc(CS(C)(=O)=O)c2)c1=O"
stdout: 0.2

stdin: Query ΔTm at 10 µM for "CNC(=O)c1ccccc1Nc1nsnc(Nc2ccc(N3CCOCC3)cc2)c1=O"
stdout: 0.2

====

Measured ΔTm at 10 µM, listed per entry.
system name: CHEK2 (Homo sapiens)
Construct: purchased in-house (home-made panel, SGC-style construct names)
Sequence (O96017 whole entry): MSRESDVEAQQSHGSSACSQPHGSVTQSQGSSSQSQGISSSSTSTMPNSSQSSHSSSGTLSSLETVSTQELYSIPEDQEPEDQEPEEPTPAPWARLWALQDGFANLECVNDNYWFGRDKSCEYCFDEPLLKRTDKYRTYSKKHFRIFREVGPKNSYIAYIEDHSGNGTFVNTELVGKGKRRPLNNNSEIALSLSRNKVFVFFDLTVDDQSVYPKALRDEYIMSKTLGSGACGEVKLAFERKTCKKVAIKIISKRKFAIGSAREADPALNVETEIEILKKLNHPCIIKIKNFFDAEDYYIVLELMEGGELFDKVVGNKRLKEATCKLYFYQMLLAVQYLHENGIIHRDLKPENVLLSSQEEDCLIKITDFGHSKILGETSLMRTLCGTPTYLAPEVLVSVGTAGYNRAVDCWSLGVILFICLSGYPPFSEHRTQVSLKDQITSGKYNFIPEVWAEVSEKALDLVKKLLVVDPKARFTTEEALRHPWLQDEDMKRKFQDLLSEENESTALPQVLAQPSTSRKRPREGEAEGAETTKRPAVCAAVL
assay protocol: DSF thermal shift, kinase panel
Format: binding
experimental setup: 10 μM compound
The response must be a number in °C with no trailing unit.

Worked set:
{"columns": ["smiles input", "ΔTm at 10 µM (°C)"],
 "data": [
  ["Cc1ccc(Nc2nsnc(Nc3cccc(C(N)=O)c3)c2=O)cc1O", 0.6],
  ["CNC(=O)c1ccccc1Nc1nsnc(Nc2ccc(N3CCOCC3)cc2)c1=O", 0.8],
  ["Cc1ccc(Nc2nsnc(Nc3ccc4c(c3)CS(=O)(=O)C4)c2=O)cc1O", 1.6]
]}

stdin: Query ΔTm at 10 µM for "Cc1ccc(Nc2nsnc(Nc3ccc(C(N)=O)cc3)c2=O)cc1O"
stdout: 3.1

stdin: Query ΔTm at 10 µM for "CNC(=O)c1ccccc1Nc1nsnc(Nc2cccc(CS(C)(=O)=O)c2)c1=O"
stdout: 0.6

====

Measured ΔTm at 10 µM, listed per entry.
system name: CAMK1G (Homo sapiens, UniProt Q96NX5)
Construct: purchased in-house (home-made panel, SGC-style construct names)
Sequence (Q96NX5 whole entry): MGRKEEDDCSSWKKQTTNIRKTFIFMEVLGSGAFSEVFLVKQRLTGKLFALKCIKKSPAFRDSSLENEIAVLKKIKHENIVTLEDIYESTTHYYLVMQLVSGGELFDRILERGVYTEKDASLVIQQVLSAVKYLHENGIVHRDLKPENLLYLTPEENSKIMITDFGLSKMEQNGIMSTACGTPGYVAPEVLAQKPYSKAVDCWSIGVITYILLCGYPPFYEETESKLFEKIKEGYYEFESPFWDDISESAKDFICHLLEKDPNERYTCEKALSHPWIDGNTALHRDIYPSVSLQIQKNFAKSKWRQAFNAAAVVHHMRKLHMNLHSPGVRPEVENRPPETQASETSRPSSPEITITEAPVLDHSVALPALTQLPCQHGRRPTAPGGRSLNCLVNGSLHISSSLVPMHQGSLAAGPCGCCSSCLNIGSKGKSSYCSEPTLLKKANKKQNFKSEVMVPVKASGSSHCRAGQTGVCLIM
assay protocol: DSF thermal shift, kinase panel
Format: binding
experimental setup: 10 μM compound
The response must be a number in °C with no trailing unit.

Worked set:
{"columns": ["compound", "system name", "quantity kind", "reading unit", "assay value"],
 "data": [
  ["CNC(=O)c1ccccc1Nc1nsnc(Nc2cccc(CS(C)(=O)=O)c2)c1=O [Compound 4]", "CAMK1G (Homo sapiens, UniProt Q96NX5)", "ΔTm at 10 µM", "°C", 0.2],
  ["Cc1ccc(Nc2nsnc(Nc3ccc(C(N)=O)cc3)c2=O)cc1O [Compound 2]", "CAMK1G (Homo sapiens, UniProt Q96NX5)", "ΔTm at 10 µM", "°C", 3.3],
  ["Cc1ccc(Nc2nsnc(Nc3ccc4c(c3)CS(=O)(=O)C4)c2=O)cc1O [Compound 3]", "CAMK1G (Homo sapiens, UniProt Q96NX5)", "ΔTm at 10 µM", "°C", 3],
  ["Cc1ccc(Nc2nsnc(Nc3cccc(C(N)=O)c3)c2=O)cc1O [Compound 1]", "CAMK1G (Homo sapiens, UniProt Q96NX5)", "ΔTm at 10 µM", "°C", 1.8]
]}

stdin: Query ΔTm at 10 µM for CNC(=O)c1ccccc1Nc1nsnc(Nc2ccc(N3CCOCC3)cc2)c1=O [Compound 5]
stdout: 0.1
